# tgt: NOV1401
# Sequence (VL, as listed by the source): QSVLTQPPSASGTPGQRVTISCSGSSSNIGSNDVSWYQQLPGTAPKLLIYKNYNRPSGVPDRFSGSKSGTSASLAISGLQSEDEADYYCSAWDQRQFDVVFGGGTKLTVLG
# assay: cell-based or functional assay; note: test concentration or dose not given here
property name: aPTT percentage reversal, NOV1401/anti NOV1401 ratio 1/3 (n/n) (%)
Answers are plain numbers, in %.

Problem: Field request: aPTT percentage reversal, NOV1401/anti NOV1401 ratio 1/3 (n/n) | item: IDT11 (antibody, human IgG1, kappa, V domains shown, also called anti-NOV1401 IgG IDT11; full length IgG format for IDT1) VH: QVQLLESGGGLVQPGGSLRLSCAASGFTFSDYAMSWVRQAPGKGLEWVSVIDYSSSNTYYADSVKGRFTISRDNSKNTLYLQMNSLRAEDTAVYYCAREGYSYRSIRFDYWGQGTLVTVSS VL: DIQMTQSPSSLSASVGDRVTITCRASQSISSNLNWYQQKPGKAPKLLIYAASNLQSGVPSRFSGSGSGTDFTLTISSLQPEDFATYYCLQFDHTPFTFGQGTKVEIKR
Solution: 55
